Cited source for all entries: the supplement of paper PMC10567573

assay: protein stability index of a GFP-peptide fusion (GPS, HEK-293T) (PSI 1-6); higher = more stable; conditions: treatment: DMSO; c terminus: a fixed tail appended;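 further: 24-mer peptide tiles fused after GFP, lentivirally expressed, FACS-sorted into six equal bins by GFP/DsRed ratio, decoded by Illumina sequencing, PSI is the read-weighted mean bin number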
assay metric: protein stability index
API doc: respond with a numeric literal and nothing else, no unit.

Find the recorded protein stability index belonging to HVMGLYPDLLPTDYRKQLQYPNPL [VPS39] and report it.
2.34

Entry MSLRLQSSSASYGGGFGGGSCQLG [KRT13] : reported protein stability index = ?
2.54

Report protein stability index for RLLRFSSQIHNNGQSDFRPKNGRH [LOXL2] please.
3.2

Consider the sequence DIWSKSNYQVFQKVTDHATTALLH [MED27] and give its measured protein stability index.
2.44

Reported protein stability index for LGNVLFSPICLSTSLSLAQVGAKG [SERPINB5] : what is it?
2.48

Query: protein stability index; subject: CSSKRSSIPLMGFEFEVRVCDSCH [WDFY2]
2.24

Need protein stability index, item EDDPLLDAQLLPHHSLQAHFRPRF [TMEM192]
3.57

Give the measured protein stability index of QGQPAMEGHCVIQVDVGDVNDNAP [PCDHGC5] .
4.97

What value of measured protein stability index is listed for VEEPSSKDVMEKREDSKEAEKSGE [CHGA] ?
5.5

Give the measured protein stability index of PVSDTPDEGDEPMPIPEDLSTTSG [IKZF1] .
5.75

Quick one: protein stability index for SQSLALKEQNNLKQLEFGLKEAPV [ZNF8] ?
4.7

Sample ALLKFREDEGFVREEEDRALPENE [KCNA4] — what was its protein stability index?
5.31

// query protein stability index value for entry NQMDKARRHPQGAWKELDRNYLNY [CHGB]
2.77

// returns reported protein stability index for input EMLSASRYPTISMVKPLLHMLLNT [ZBED1]
2.6

# protein stability index lookup, item LASGLVVFFLFPHSVLVDDDGIKV [TMEM106C]
2.92

State the recorded protein stability index for this entry: LPGAVATIVKPLSAIPQPTITKQE [HNF4A]
4.51

Please give the measured protein stability index for this sequence: GQTGTRLTPADKAEHMKRQRHPRL [AUP1]
4.32

May I ask what protein stability index has been recorded for SRAESAPLPVSADDTPEVLNRALS [CDS2] ?
5.36

Form field: reported protein stability index of SLLDVAEPGGPGWLPESDCETVTC [SMAD6]
4.63

Give its protein stability index value. Item: SSMFSGSWKESSMNIIELEIPDQN [GMCL1]
3.53

I have this sequence here, SQEETSILRCWKCRKCIASSGCFM [RNF180] , and I need its recorded protein stability index.
2.81

Given YQETMVESTFMYLTLDLPTAPLYK [USP39] , state its recorded protein stability index.
2.36

Any idea what protein stability index was measured for PMVRKRSVSNSTQTSSSSSQSETS [DLC1] ?
5.26

GET /values?readout=protein stability index&item= CEETGELFEEPAPQALATRALPCP [FCHSD1]
4.95

What value of protein stability index has been recorded for this entry: VENNRRDVEAWFNTQTEELNQQVV [KRT36]
4.67

Reported protein stability index, sequence PNRQLWIELAPLSMPRINHGVLSA [GAN] : ____
2.17

// returns reported protein stability index for input FCGAPPVTPIIVLSIINFFERLCL [PHTF1]
2.87

---

Provide the reported protein stability index of each item.
test: protein stability index of a GFP-peptide fusion (GPS, HEK-293T) (PSI 1-6); higher = more stable; conditions: treatment: MLN4924 1 uM, 8 h; c terminus: a fixed tail appended
The answer should be a number; do not append a unit.

Find the recorded protein stability index belonging to PKNPALEAFLAQFSQLEDKFPGQS [TOR1AIP2] and report it.
3.64

So what does the record say about protein stability index for SFFFPPVNLPISFFRKLLDCCQVS [NLN] ?
2.25

protein stability index lookup needed for PPWKEAFRQRCLERMRNSRDRLLN [RPAIN] , thanks.
2.75

Query: protein stability index; subject: WAAPRVGPLPPAPAMVRISKPKTF [YPEL3]
3.25

// returns reported protein stability index for input ESPRKRKKATEAIDSLRKSKRLRN [FBXO28]
5.33

Need protein stability index of SSSSSSSSSSGPGHGEPDVLKDEL [TMEM40] , thanks.
5.42

Look up protein stability index: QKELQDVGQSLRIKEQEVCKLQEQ [SASS6]
5.03

Look at this sequence and give its reported protein stability index. LTLQVYREQADSCREQLDIMNDLS [TRIM14]
2.95

What value of protein stability index has been reported for the following sequence? GGTPIRGALQIEQSEESDQGKYEC [PTPRD]
5.4

Any idea what its protein stability index is? The sequence is PFRGDEGIFEESFIEERRQGLEQF [SNX12]
4.42

// protein stability index lookup, key: LINTIRVVCASYEDYGHWLLCLRA [PLEKHN1]
2.43

What value of protein stability index has been recorded for this entry: PGRLTEALCLEVRPTYFEMKNEKL [RNF180]
4.9

Value lookup for protein stability index; key = EKALKKNVKLQELINHKKAEDTEK [CEP70]
5.07

Fill blank: measured protein stability index of the sequence LYRQHQAQIDQYVGLVTNQLSHIK [RTN2] is ____.
2.05

Item under review: ERIVVAGNNEDVSFSRPADLDLIQ [MFF] . Reported protein stability index?
4.21

Any idea what its protein stability index is? The sequence is PLPESRREIEELLAEAKYYLVQGL [KCTD10]
2.77

I am curious: what protein stability index value has been reported for NGTYAGPAPAFQPFFFTGAFPFNM [ANKRD40] ?
2.51

# lookup: protein stability index of EEKPQENKTWREQYLRLPDAPEQR [ELOA2]
4.88

For the sequence shown here, ALQYAGDGSVLLIPRTMADQQARR [NFE2L1] , give the reported protein stability index.
3.19

What does the record list as protein stability index for LCAPEVISLINTRMLFWACSTNKP [FAF2] ?
2.88

Give its protein stability index value. Item: AGIGRTGTFCSLDICLAQLEELGT [PTPN9]
2.62

What does the data say about its protein stability index? Entry: VELLLSHADCDRRSRIEALELLGA [FEM1B]
2.78

Return reported protein stability index; argument: NKTGVSPYSKTLVLQTSEGKALQQ [TRIM9]
4.22

Need protein stability index of FDPAEKYKMDHRRRGIALIFNHER [CASP6] , thanks.
3.19

I'd like to know its protein stability index. The sequence in question is RTAFLWRGNVVLRAQMIRNEYRKL [TRIM43]
2.51

GET /values?readout=protein stability index&item= RHGGLSLVQTTDFFYPLVEDPYMM [SEPHS2]
2.24

Any idea what its protein stability index is? The sequence is VFCPLDPPPPYEAVVSQMDQEQGS [FAM189A2]
4.76

Field request: protein stability index | item: ANHTHTFYGHSHHSHHGHPSHQSH [C10orf62]
3.46

Query (sequence): GKPGDRNCPEFPPPDRTLGCWATD [RSPH3] ; field requested: protein stability index
4.32

Which measured protein stability index value corresponds to WKPPDIKGKLMVCYETLPRGQCLL [SPAG8] ?
2.32

Given the sequence SDDDEEEEENIGCEEKAKKNANRP [ACBD3] , what is its reported protein stability index?
5.49

Bench note: what protein stability index did RDGRRDRYSSDTTPLLNGSSQDRM [GOSR1] show?
4.85

Reported protein stability index, sequence FGAVNLSSPSNMLPVRPQTNALIG [CLINT1] : ____
3.26

Could you share which protein stability index value was measured for DAGEVSYLPRDFSTYRPLPDPSVW [MYORG] ?
3.27

Sample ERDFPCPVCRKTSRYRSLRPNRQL [TRIM39] — what was its protein stability index?
3.23

I have this sequence here, TQQELRKIREKEEWIKLDYHRRHN [IQUB] , and I need its recorded protein stability index.
3.82

Endpoint output: protein stability index of DPGPEPEEEPGVRNGMASEGLNSS [PSD2] . Value?
5.44

# input sequence: MENNHTVAITILQDDHDHKVQELM [MTUS2] ; wanted: its protein stability index
4.34

Requested read-out: protein stability index. Entry: RLDGCIYAIKRSKKPLAGSVDEQN [WEE1]
3.73

What value of protein stability index has been recorded for this entry: RAIPELTKLLNDEDQVVVNKAAVM [CTNNB1]
3.89

Record request: protein stability index value, item WALGCVLYELASLKRAFEAANLPA [NEK8]
2.9

I would be grateful if you could share the reported protein stability index for MLRQLLLAALCLAGPPAPARACQL [CCDC3] .
2.76

Recorded protein stability index of EVGDPAPLGAGNLGPELIKESNAN [DPCD] , please.
5.28

Tell me the measured protein stability index of GCEDEYLVNPTCQVLVKDFTFEGF [ZER1] , please.
2.85

Please give the measured protein stability index for this sequence: MSLRLQSSSASYGGGFGGGSCQLG [KRT13]
2.49

Can you look up the measured protein stability index of DLVNRTPWKKCCFSGDGEYIVAGS [RBBP5] for me?
2.37

Entry RTILLSVISLLNEPNTFSPANVDA [CDC34] : reported protein stability index = ?
2.66

Reported protein stability index, sequence EKFDIVKKWGINTYKCTKQLLSER [ARFIP2] : ____
2.79

Item KKWQQYRSVRRERLKEMKLLRDQF [FAM9B] has what recorded protein stability index?
2.71

Item PGSGSGPGPGSGPGSGPGHGSGSH [SPAG8] has what recorded protein stability index?
4.93

Suppose we examine the sequence QNARLAELERKLREVMESAVGNSS [FBXO28] ; what protein stability index value has been reported?
3.52

Which protein stability index is reported for this sequence? GLADVEANYVIVRAYQYTTLTSVQ [SLC35F2]
2.66

Can you share its protein stability index? I mean this sequence: SSAYVKTSEKLGEWNEKVTQSDLY [TPD52L2]
3.98
